# assay text: Half life in human plasma at 1 mg/ml incubated up to 24 hrs at 37 degC by HPLC analysis
# Type: ADME, cell-free

molecule	half-life at 1 mg/ml [h]
CC(C)OC(=O)[C@H](C)N[P@](=O)(OC[C@H]1O[C@@H](n2ccc(=O)[nH]c2=O)[C@@](F)(CF)[C@@H]1O)Oc1ccccc1	17.3

###

# assay text: Half life in simulated intestinal fluid at pH 7.4 at 1 mg/ml incubated up to 24 hrs at 37 degC by HPLC analysis
# Assay type: ADME
measure name: half-life at 1 mg/ml

molecule	value
CC(C)OC(=O)[C@H](C)N[P@](=O)(OC[C@H]1O[C@@H](n2ccc(=O)[nH]c2=O)[C@@](F)(CF)[C@@H]1O)Oc1ccccc1	> 24 h

###

# assay text: Half life in human liver S9 fraction at 1 mg/ml incubated up to 120 mins at 37 degC by HPLC analysis
# Format: ADME, subcellular

molecule	half-life
CC(C)OC(=O)[C@H](C)N[P@](=O)(OC[C@H]1O[C@@H](n2ccc(=O)[nH]c2=O)[C@@](F)(CF)[C@@H]1O)Oc1ccccc1	29.4 min

###

# Test system: Hepatitis C virus
# assay text: Antiviral activity against Hepatitis C virus genotype 1b expressing NS5B RNA dependent RNA polymerase S282T mutant infected in human HuH7 cells after 48 hrs by luciferase reporter gene assay
# Assay type: functional, organism-based, Hepacivirus hominis
# stated conditions: Huh-7, 48 h
measure name: EC50

molecule	target under test	measure name	value
CC(C)OC(=O)[C@H](C)N[P@](=O)(OC[C@H]1O[C@@H](n2ccc(=O)[nH]c2=O)[C@@](F)(CF)[C@@H]1O)Oc1ccccc1	Hepatitis C virus	EC50	1.13 µM

###

# assay text: Half life in simulated gastric fluid at pH 1.2 at 1 mg/ml incubated up to 24 hrs at 37 degC by HPLC analysis
# Format: ADME
measure name: half-life at 1 mg/ml

molecule	measure name	value
CC(C)OC(=O)[C@H](C)N[P@](=O)(OC[C@H]1O[C@@H](n2ccc(=O)[nH]c2=O)[C@@](F)(CF)[C@@H]1O)Oc1ccccc1	half-life at 1 mg/ml	> 24 h
